Hey, just so you know, these numbers are from ChEMBL document CHEMBL3301472.

This section presents compounds with their documented % Cell Death values.
Experiment: MMV: MTT Cytotoxicity Assay Day 3 pi, U87-CD4-CCR5 cells, % cell death @ 5mM compound
Format: toxicity, cell-based
Settings: human, u87-cd4-ccr5, 5000 µM
Number, no unit, nothing else.

// below: answered compounds
[
  {
    "COMPOUND": "COc1ccc(N2CCN(C(CNC(=O)CC(C)(C)C)c3ccc4c(c3)OCO4)CC2)cc1 (stereo unspecified)",
    "% Cell Death": -2
  },
  {
    "COMPOUND": "COc1ccccc1CNC(=O)CCn1c(=O)[nH]c2ccccc2c1=O",
    "% Cell Death": -7
  },
  {
    "COMPOUND": "Cl.Clc1cc(Br)ccc1-c1ccc(CNCC2CCNCC2)o1",
    "% Cell Death": 15
  }
]

Qu. Endpoint output: % Cell Death of COc1ccc(OC)c(C2C3=C(CC(C)(C)CC3=O)N(c3ccc(Cl)c(Cl)c3)C3=C2C(=O)CC(C)(C)C3)c1 . Value?
Ans. 9

Qu. // % Cell Death lookup, key: COc1ccccc1CNC(=O)C1c2ccccc2C(=O)N(CC(C)C)C1c1cccs1 (stereo unspecified)
Ans. 108

Qu. # get_value(readout='% Cell Death', item= OC(CNCC1CCCO1)Cn1c2ccc(Cl)cc2c2cc(Cl)ccc21 (stereo unspecified) )
Ans. 11

* * *

Item-by-item account of % Cell Death
Test: MMV: MTT Cytotoxicity Assay Day 7 pi of Assay #10 (NO washout), U87-CD4-CCR5 cells, % cell death @ 5mM compound
Type: toxicity, cell-based
Details: human, u87-cd4-ccr5, 5000 µM
Lab note: write the figure by itself, no unit.

[
  {
    "MOLECULE": "Nc1nc(Nc2cccc(F)c2)nc2ccccc12",
    "REPORTED": 45
  },
  {
    "MOLECULE": "O=C(NCc1ccco1)C1CCN(S(=O)(=O)c2ccc(Br)cc2)CC1",
    "REPORTED": -12
  }
]

Qu. Endpoint output: % Cell Death of O=c1nc(C=Cc2ccc(Br)cc2)oc2ccccc12 . Value?
Ans. 35

Qu. Returns the measured % Cell Death for the input molecule. Input: CCOc1ccc(/C=C/c2nc(=O)c3ccccc3o2)cc1
Ans. 21

Qu. Could you share which % Cell Death value was measured for CCOc1cc(Br)c(C(C)NC(=O)c2cccc(OC)c2)cc1OCC (stereo unspecified) ?
Ans. 28

Qu. Report % Cell Death for Cc1ccc(-c2nc3ccccc3o2)cc1NCc1cc(Cc2ccccc2)ccc1O please.
Ans. 13

* * *

Experiment: MMV: MTT Cytotoxicity Assay Day 7 pi of Assay #11 (NO washout), U87-CD4-CXCR4 cells, % cell death @ 5mM compound
Assay type: toxicity, cell-based
Details: human, u87-cd4-cxcr4, 5000 µM
This listing pairs compounds with measured % Cell Death.

Here is how some compounds turned out for % Cell Death.
[
  {
    "COMPOUND": "CCOC(=O)c1ccc2[nH]c(-c3ccccc3)cc(=O)c2c1",
    "% Cell Death": 99
  },
  {
    "COMPOUND": "CSc1ccccc1C(=O)Nc1nc(-c2ccccn2)cs1",
    "% Cell Death": 2
  },
  {
    "COMPOUND": "CCOC(=O)c1cnc2ccc(OC)cc2c1Nc1ccc(N2CCN(C)CC2)cc1",
    "% Cell Death": -14
  },
  {
    "COMPOUND": "CC1CC2=C(CC1CNCCCN(C)C)C(C)(C)CCC2 (stereo not drawn)",
    "% Cell Death": -30
  },
  {
    "COMPOUND": "Cc1ccc(N2C3c4ccccc4N(S(=O)(=O)c4ccc(C)cc4)C2c2ccccc2N3S(=O)(=O)c2ccc(C)cc2)cc1",
    "% Cell Death": -39
  }
]

Qu. Would you kindly share the measured % Cell Death for Brc1ccc(Nc2nc3ccccc3nc2Nc2ccc(Br)cc2)cc1 ?
Ans. -26

Qu. Field request: % Cell Death | item: O=C(Nc1cccc(-c2nc3ccccc3[nH]2)c1)c1cccc(NC(=O)c2ccco2)c1
Ans. -18

Qu. % Cell Death lookup needed for Cc1cc(Nc2cccc(F)c2)nc(NCc2ccccc2)n1 , thanks.
Ans. -41

Qu. Give its % Cell Death value. Item: CCOc1ccc(-c2nc(NC(=O)c3cccc(S(C)(=O)=O)c3)sc2C)cc1
Ans. 29

Qu. Need % Cell Death of COc1ccccc1CNC(=O)C1c2ccccc2C(=O)N(CC(C)C)C1c1cccs1 (stereo not drawn) , thanks.
Ans. 43

Qu. Fill in the blank: the reported % Cell Death of COc1ccc(C2c3ccc4ccccc4c3Oc3ncn(CCCn4ccnc4)c(=N)c32)cc1OC (stereo not drawn) is ____.
Ans. -30

Qu. Consider the compound CCN(CC)CCNc1ccnc2cc(Cl)ccc12 and give its measured % Cell Death.
Ans. -13

Qu. Data request, read-out % Cell Death, for COc1ccc2nc(C)cc(Nc3ccccc3O)c2c1
Ans. -34
